These entries and their values trace back to ChEMBL document CHEMBL1201862.

System: A498
Assay: NCI tumour cell line growth inhibition, 48 h
Calls of active or inactive are those of the source. Rule as the data show it: active = GI50 up to about 1.1 µM and inactive = higher.
Record form. Attribute: GI50. Fill in for each entry.

response.value for CC(=O)C1=C(C)N(c2ccccc2)C2(O)C3=C(C(=O)c4ccccc4C3=O)C(O)=CC12Cl (centres undefined) (field: GI50) = 13 µM (inactive)

response.value for COc1ccc([N+](=O)[O-])c2c(NCC(O)CO)ccnc12 (centres undefined) (field: GI50) = 32.4 µM (inactive)

response.value for CC(C)Sc1nc(C#N)cc2c1CCCC2 (field: GI50) = 37.1 µM (inactive)

response.value for COc1ccccc1C1SCC(=O)N1c1ccc(-c2ccc(-n3c(-c4ccccc4)nc4ccccc4c3=O)cc2)cc1 (centres undefined) (field: GI50) = > 100 µM (inactive)

response.value for Brc1ccc2ns[s+]c2c1 (field: GI50) = > 100 µM (inactive)

response.value for Cc1nc2ccc(Cl)cc2c2c1CCO2 (field: GI50) = 71 µM (inactive)

response.value for N#Cc1cc([N+](=O)[O-])ccc1NC(=O)C(F)(F)F (field: GI50) = > 100 µM (inactive)

response.value for O=C(Nc1cccc(O)c1)C(=O)C(C(=O)c1ccccc1F)C1OC(=O)c2ccccc21 (centres undefined) (field: GI50) = 66.5 µM (inactive)

response.value for COC1=CC(=O)c2c(O)c3c(c(O)c2C1=O)CC(C)(O)OC3 (centres undefined) [FUSARUBIN] (field: GI50) = 9.66 µM (inactive)

response.value for C1=Cc2ccccc2C1.C=C(C)c1ccccc1.[N-]=[N+]=Nc1ccccc1 (field: GI50) = > 100 µM (inactive)

response.value for CCCCCCCCCCCCCCCCC(=O)NCC(=O)NCC(=O)NC(Cc1ccccc1)C(=O)Oc1ccc([N+](=O)[O-])cc1 (centres undefined) (field: GI50) = > 100 µM (inactive)

response.value for O=[N+]([O-])c1ccc2c(c1)c(OCc1ccccc1)nn2Cc1ccccc1 (field: GI50) = 33 µM (inactive)

response.value for COC(=O)c1cc2c(cc1CC1Cc3cc4c(cc3C1=O)CCC4)CCC2 (centres undefined) (field: GI50) = 56 µM (inactive)

response.value for COC(=O)[C@@]12OC[C@]34[C@H]([C@@H](O)[C@@H]1O)[C@@]1(C)CC(=O)C(OC(C)=O)=C(C)[C@@H]1C[C@H]3OC(=O)[C@H](OC(=O)C=C(C)C)[C@@H]24 (field: GI50) = 0.43 µM (active)

response.value for COc1ccc(OC)c(NC(=O)C(=O)C(C(C)=O)c2nc3ccc(Cl)cc3nc2O)c1 (centres undefined) (field: GI50) = > 50 µM (inactive)

response.value for O=C(O)C1(C(=O)O)CCN(S(=O)(=O)c2ccccc2)CC1 (field: GI50) = > 100 µM (inactive)

response.value for CN/N=C(\C(=O)Nc1ccc(C(F)(F)F)cc1[N+](=O)[O-])C(c1cnc2ccc([N+](=O)[O-])cc2n1)[N+](=O)[O-] (centres undefined) (field: GI50) = 16.7 µM (inactive)

response.value for C=C(CCC(C)C1CCC2C3=C(C(=O)CC21C)C1(C)CCC(=O)[C@@H](C)C1CC3=O)C(C)C(=O)O (some centres undefined) (field: GI50) = > 100 µM (inactive)

response.value for O=C1CCCC1C(O)(C(F)(F)F)C(F)(F)F (centres undefined) (field: GI50) = > 100 µM (inactive)

* * *

Tested on: NCI-H226
Assay: NCI tumour cell line growth inhibition, 48 h
Activity calls are given as the source filed them. Cut-off read from the data, not from the text of the source: active = GI50 up to about 1.1 µM and inactive = higher.
Would you mind answering with one of these outcomes? class 1 = active, class 0 = inactive

Inquiry: Which outcome was assigned to OC1[C@H](O)CN(OCc2ccccc2)C[C@@H]1O (stereo not given in full) in this test?
Reply text: class 0

Inquiry: Which outcome was assigned to CC(=O)C1=C(C)N(c2ccccc2)C2(O)C3=C(C(=O)c4ccccc4C3=O)C(O)=CC12Cl (stereo not given) in this test?
Reply text: class 0

Inquiry: Which outcome was assigned to CCOC(=O)C1=NN(c2ccc([N+](=O)[O-])cc2)[C@@]2(C)C[C@]3(c4ccccc4)N(c4ccc([N+](=O)[O-])cc4)N=C(C(=O)OCC)N3c3ccccc3N12 in this test?
Reply text: class 0

Inquiry: Which outcome was assigned to O=C(COc1ccc(Cl)c(Cl)c1)N(Cc1ccccc1)Cc1ccc[n+](Cc2ccc(Cl)cc2S(=O)(=O)F)c1 in this test?
Reply text: class 0

Inquiry: Which outcome was assigned to Nc1ncnc2c1sc(=S)n2-c1ccccc1 in this test?
Reply text: class 0

Inquiry: Which outcome was assigned to CC1=C(N2CC2)C(=O)C(C)=C(N2CC2)C1=O in this test?
Reply text: class 1

Inquiry: Which outcome was assigned to CC1(C)COP(=S)(c2ccccn2)O[C@@H]1c1ccccc1 (stereo not given in full) in this test?
Reply text: class 0

Inquiry: Which outcome was assigned to CN1CCN(c2ccc3[nH]c(-c4ccc5[nH]c(-c6ccc(N(C)CCCl)cc6)nc5c4)nc3c2)CC1 in this test?
Reply text: class 1

Inquiry: Which outcome was assigned to COc1ccc(C(=O)Nc2ccc3oc(-c4ccccc4)nc3c2)cc1 in this test?
Reply text: class 0

Inquiry: Which outcome was assigned to CNC1C(O)C(NC)C2OC3(O)C(=O)CC(C)OC3OC2C1O (stereo not given) in this test?
Reply text: class 0

* * *

Tested on: HL-60
Assay: NCI tumour cell line growth inhibition, 48 h
Calls of active or inactive are those of the source. No stated cut-off is given here; in the data, active = GI50 up to about 1.1 µM and inactive = higher.
Would you mind answering with one of these outcomes? true (1) = active, false (0) = inactive

Inquiry: Which outcome was assigned to CCCCCCCCCCCCOP(N)(=O)OCCCCCCCCCCCC in this test?
Reply text: false (0)

Inquiry: Which outcome was assigned to Nc1nc2c(ncn2Cc2ccccc2CCO)c(=O)[nH]1 in this test?
Reply text: false (0)

Inquiry: Which outcome was assigned to Cc1nc2ccc(Cl)cc2c2c1CCO2 in this test?
Reply text: false (0)

Inquiry: Which outcome was assigned to Nn1c(S)nnc1-c1ccccc1Nc1ccccc1-c1nnc(S)n1N in this test?
Reply text: false (0)

Inquiry: Which outcome was assigned to CCCCCCC(=O)c1ccc2ccccc2c1O in this test?
Reply text: false (0)

Inquiry: Which outcome was assigned to CCN(CC)C(=S)N/N=C(/C)c1cccc(/C(C)=N\NC(=S)N(CC)CC)n1 in this test?
Reply text: true (1)

Inquiry: Which outcome was assigned to O=C(c1cc2c(c3ccccc13)NCCN=C2C(F)(F)F)C(F)(F)F in this test?
Reply text: false (0)

Inquiry: Which outcome was assigned to Cc1nc(N(C(C)C)C(C)C)c(C(C)C)o1 in this test?
Reply text: false (0)

Inquiry: Which outcome was assigned to O=S(=O)(N/N=C/c1ccc(/C=N/NS(=O)(=O)c2ccccc2)cc1)c1ccccc1 in this test?
Reply text: false (0)

Inquiry: Which outcome was assigned to COc1cc(C(c2ccccc2)N2C(=O)CC[C@H]2C(=O)O)cc(OC)c1OC (some centres not stated) in this test?
Reply text: false (0)

Inquiry: Which outcome was assigned to O=C1Sc2ccccc2/C1=N/Nc1ccccc1[N+](=O)[O-] in this test?
Reply text: false (0)

Inquiry: Which outcome was assigned to COc1ccc2c(c1)nc1n2C(c2c(F)cccc2F)SC1 (configuration not stated) in this test?
Reply text: false (0)

Inquiry: Which outcome was assigned to O/N=N\c1nc(-c2ccccn2)nc2ccccc12 in this test?
Reply text: true (1)

Inquiry: Which outcome was assigned to O=c1ccc2ccc(O)cc2o1 [UMBELLIFERONE] in this test?
Reply text: false (0)

Inquiry: Which outcome was assigned to O=c1c2cc(Br)ccc2oc2ccc(Br)cc12 in this test?
Reply text: false (0)

Inquiry: Which outcome was assigned to CCCCCCCCCCCCCCCCC(=O)NCC(=O)NCC(=O)NC(Cc1ccccc1)C(=O)Oc1ccc([N+](=O)[O-])cc1 (configuration not stated) in this test?
Reply text: false (0)

Inquiry: Which outcome was assigned to COc1ccc(/N=C/N(C)C)c(C)c1 in this test?
Reply text: true (1)

Inquiry: Which outcome was assigned to O=C1NC(c2ccc(O)cc2)C2CCC1C2 (configuration not stated) in this test?
Reply text: false (0)

Inquiry: Which outcome was assigned to O=C(Nc1cccc(O)c1)C(=O)C(C(=O)c1ccccc1F)C1OC(=O)c2ccccc21 (configuration not stated) in this test?
Reply text: false (0)

Inquiry: Which outcome was assigned to COC(C)(C)[C@H](O)C(O)CC(C)[C@@H]1CCC23CC12CCC1[C@@]2(C)CCC(OC(C)=O)C(C)(C)C2CC(OC2OC(COC(C)=O)C(O)C(O)C2O)[C@]13C (some centres not stated) in this test?
Reply text: false (0)

Inquiry: Which outcome was assigned to CC(=O)/N=C1\NC(=O)/C(=C/c2ccc(/C=C3/C(=O)N/C(=N\C(C)=O)N3C)cc2)N1C in this test?
Reply text: false (0)

Inquiry: Which outcome was assigned to COC(=O)N1N=C(c2ccccc2)C1c1ccccc1 (configuration not stated) in this test?
Reply text: false (0)
